- protocol_description: Inhibition of monkey recombinant 11beta-HSD1 expressed in Escherichia coli using [3H]cortisone by scintillation proximity assay
- Set-up: species or system Macaca mulatta
value_type: pKi
The meaning of pKi here: minus log10 of the concentration in molar units.

Kindly note the recorded pKi for C[C@H](NC1=NC(=O)[C@](C)(C(C)(C)O)S1)c1ccc(F)cc1 , which is 7.32

---

- protocol_description: Half life in rat at 2 mg/kg, iv
- Type: ADME, organism-based
- Parameters: dose 2 mg/kg, route intravenous
- condition_summary: in vivo
value_type: half-life (h)
Output spec: scalar in h, unitless text.

Kindly note the recorded half-life for C[C@H](NC1=NC(=O)[C@](C)(C(C)(C)O)S1)c1ccc(F)cc1 , which is 5.6

These measurements were taken from ChEMBL document CHEMBL1151735.
